Test system: PCA reaction
Assay: 48 hour-homologous passive cutaneous anaphylaxis (PCA) test in rats (antiallergic effects)
Type: in vivo, rat (male Wistar)
Settings: rat, oral, 1 hour before PCA challenge; inhibition 50% or higher in at least one of three animals; read-out: Anti-PCA MED (minimum effective dosage)
reportedEndpoint: minimal effective dose (mg/kg)
Numbers only, in mg/kg.

Below: 6 molecules and their reported minimal effective dose.
Give minimal effective dose only, for CC(CC1OCCc2ccccc21)NC[C@H](O)c1ccccc1 (some centres unmarked) , using PCA reaction data.
1

State the measured minimal effective dose (PCA reaction) of CC(CC1OCCc2ccccc21)NCC(O)c1ccc(Cl)cc1 (centres unmarked)
1

Retrieve minimal effective dose on PCA reaction; query CC(CC1CCCc2ccccc21)NCC(O)c1ccc(O)cc1 (centres unmarked)
10

Look up and report measured minimal effective dose (PCA reaction) for the following molecule: CC(CC1OCCc2ccccc21)NC[C@H](O)c1ccc(O)cc1 (some centres unmarked)
10

Using PCA reaction as the test system, report measured minimal effective dose of COc1ccc(C(O)CNC(C)CC2OCCc3ccccc32)cc1 (centres unmarked) .
10

Give the observed minimal effective dose of CC(CC1OCCc2ccccc21)NCC(O)c1ccccc1 (centres unmarked) for PCA reaction.
10

Dear colleague, could you send me minimal effective dose for each of the items below? Thanks.
1. CC(CC1OCCc2ccccc21)NCC(O)c1ccc(O)cc1 (centres unmarked)
2. CC(CC1OCCc2ccccc21)NCC(O)c1cccc(O)c1 (centres unmarked)

1: 10; 2: 10

* * *

System: dd-mice
Test: Acute toxicity (minimum lethal dose)
Assay type: in vivo
Conditions: male dd-mice, po, mortality for seven days
reportedEndpoint: Acute Toxicity MLD po (minimum lethal dose) (mg/kg)
One number for each entry, in mg/kg.

Field: example entries. Status: answers known.
Send back dd-mice Acute Toxicity MLD po (minimum lethal dose) of CC(CC1OCCc2ccccc21)NCC(O)c1ccc(Cl)cc1 (stereo not shown) only.
100

State recorded Acute Toxicity MLD po (minimum lethal dose) with dd-mice, entry CC(CC1OCCc2ccccc21)NCC(O)c1ccc(F)cc1 (stereo not shown) , no comment.
300

Fill in: Acute Toxicity MLD po (minimum lethal dose) on dd-mice, entry CC(CC1OCCc2ccccc21)NCC(O)c1cc(O)cc(O)c1 (stereo not shown)
200

With dd-mice as the test system, provide measured Acute Toxicity MLD po (minimum lethal dose) for this molecule: CC(CC1OCCc2ccccc21)NCC(O)c1cccc(O)c1 (stereo not shown)
300

Supply Acute Toxicity MLD po (minimum lethal dose) measured with dd-mice for CC(CC1OCCc2ccccc21)NCC(O)c1ccccc1O (stereo not shown) .
200

Query molecule follows.
# return Acute Toxicity MLD po (minimum lethal dose) for CC(CC1OCCc2ccccc21)NC[C@@H](O)c1ccccc1 (stereo partly shown) , test system: dd-mice
200

* * *

Consider the following compounds; for each one, report its pIC50.
Test system: tracheae (zig-zag strips from passively sensitized guinea pigs)
Experiment: passive Schultz-Dale reaction (bronchodilatory effects), relaxation of antigen-contracted tracheal strips
Set-up: species or system guinea pig (male Hartley)
Conditions: Cavia porcellus; EWA (1 μg/ml)-induced contraction, guinea pig trachea, 37° C., cumulative addition; read-out: Bronchodilatory effect IC50 (concentration to produce 50% relaxation)
Numbers only, as −log10 of the molar value.

Find the measured pIC50 of COc1ccc(C(O)CNC(C)CC2OCCc3ccccc32)cc1 (stereo not shown) with tracheae (zig-zag strips from passively sensitized guinea pigs) as test system.
7.09

Write down measured pIC50 (tracheae (zig-zag strips from passively sensitized guinea pigs)) for this compound. CC(CC1OCCc2ccccc21)NC(C)C(O)c1ccc(O)cc1 (stereo not shown)
5.80

Find the measured pIC50 of CC(CC1OCCc2ccccc21)NC[C@H](O)c1ccc(O)cc1 (stereo partly shown) with tracheae (zig-zag strips from passively sensitized guinea pigs) as test system.
9.21

Recall the reported pIC50 of CC(CC1OCCc2ccccc21)NCC(O)c1ccc(O)cc1 (stereo not shown) when tested on tracheae (zig-zag strips from passively sensitized guinea pigs).
7.89

Enter pIC50 (test system tracheae (zig-zag strips from passively sensitized guinea pigs)) for CC(CC1OCCc2ccccc21)NCC(O)c1cccc(O)c1 (stereo not shown)
7.96

Tell me pIC50 of CC(CC1OCCc2ccccc21)NC[C@H](O)c1ccccc1 (stereo partly shown) when tested on tracheae (zig-zag strips from passively sensitized guinea pigs).
7.72

State the measured pIC50 (tracheae (zig-zag strips from passively sensitized guinea pigs)) of CC(CC1c2ccccc2CCN1C)NCC(O)c1ccc(O)cc1 (stereo not shown)
7.07

Please indicate recorded pIC50 of CC(CC1OCCc2ccccc21)NC[C@@H](O)c1ccccc1 (stereo partly shown) measured with tracheae (zig-zag strips from passively sensitized guinea pigs).
4.92

Hi team, please reply with pIC50 for each item in this list.
1. CC(CC1OCCc2ccccc21)NCC(O)c1ccc(Cl)cc1 (stereo not shown)
2. Oc1ccc(C(O)CNCCC2OCCc3ccccc32)cc1 (stereo not shown)

1: 5.47; 2: 8.06
